Tested on: HL-60
Assay: Resistance factor was determined using the ratio of (IC50) of drug resistance cells/drug sensitive cells in HL60/Vinc cell line
Type: functional, Homo sapiens
quantityKind: RF

{"columns": ["molecule", "experimentalResult"],
 "data": [
  ["COc1cc2c(cc1OC)C(c1cc(OC)c(OC)c(OC)c1)[C@H]1COC[C@@H]1C2 (stereo partly specified)", 0.6],
  ["COc1ccc([C@@H]2c3cc(OC)c(OC)cc3C[C@H]3COC[C@@H]32)cc1OC", 0.3],
  ["COc1cc([C@@H]2c3cc4c(cc3[C@@H](O[C@@H]3O[C@@H]5CO[C@@H](C)O[C@H]5[C@H](O)[C@H]3O)[C@H]3COC(=O)[C@H]23)OCO4)cc(OC)c1O [ETOPOSIDE]", 11],
  ["COc1cc([C@@H]2c3cc4c(cc3C[C@H]3COC[C@@H]32)OCO4)cc(OC)c1OC", 0.5],
  ["COc1cc([C@H]2c3cc4c(cc3C[C@H]3COC[C@@H]32)OCO4)cc(OC)c1OC", 0.4],
  ["COc1ccc([C@H]2c3cc(OC)c(OC)cc3C[C@H]3COC[C@@H]32)cc1OC", 0.4]
]}
